test system: IL1 β-stimulated human peripheral blood lymphocytes; test: Cytokine release in IL1β-stimulated human peripheral blood lymphocytes (ELISA); type: cell-based; settings: Lymphocyte, 1 h preincubation, 24 h stimulation, read-out: TNFα release IC50
recorded.metric: IC50 (µM)
Number only, in µM; omit the unit.

These solved cases illustrate the format of a correct answer.
| molecule | IC50 / µM |
| --- | --- |
| Cc1n[nH]c2c1nc(-c1cccc(O)c1)c1ccccc12 [Example 3] | 8 |
| COc1cccc(-c2nc3c(C)n[nH]c3c3ccccc23)c1 [Example 2] | 35 |

Exercise: Fill in reported IC50 for this entry: c1ccc(-c2nc3c(-c4ccccc4)n[nH]c3c3ccccc23)cc1 [Example 1]
Solution: 5
